Measured IC50 accompanies every entry in the list below.
# Test system: T47D cells
# protocolDetails: MTT cell viability assay
# Assay type: cell-based, human
# assaySetup: Homo sapiens, T47D, 72 h, 10%FBS growth media
valueKind: IC50 (µM)

>>> result("O=C1C(c2ccc([N+](=O)[O-])cc2)=CC(O)(c2ccccc2)N1Cc1ccccc1 (stereo not drawn) [compound 35]")
5.31
>>> result("Cc1ccc(C2=CC(O)(c3ccccc3)N(Cc3ccccc3)C2=O)cc1C (stereo not drawn) [compound 32]")
10.6

----------
Measured IC50 accompanies every entry in the list below.
# Test system: T47D cells
# protocolDetails: MTT cell viability assay
# Type: cell-based, human
# assaySetup: Homo sapiens, T47D, 72 h, 10%FBS growth media
valueKind: IC50

>>> result("COc1cccc2c1C(=O)c1c(O)c3c(c(O)c1C2=O)C[C@@](O)(C(=O)CO)C[C@@H]3O[C@H]1C[C@H](N)[C@H](O)[C@H](C)O1 [DOXO, doxorubicin, reference compound]")
"0.15 µM"
>>> result("COc1ccc(N2C(=O)C(c3ccccc3)=CC2(O)c2ccc(OC)cc2)cc1 (stereo not shown)")
"> 10 µM"
>>> result("O=C1C(c2ccc3c(c2)OCO3)=CC(O)(c2ccccc2)N1Cc1ccccc1 (stereo not shown)")
"> 10 µM"
>>> result("COc1ccc(C2=CC(O)(c3ccc([N+](=O)[O-])cc3)N(Cc3ccccc3)C2=O)cc1 (stereo not shown)")
"8.57 µM"
>>> result("COc1ccc(C2=CC(O)(c3ccccc3)N(C3CCCCC3)C2=O)cc1F (stereo not shown)")
"> 10 µM"
>>> result("COc1ccccc1C1=CC(O)(c2ccc([N+](=O)[O-])cc2)N(Cc2ccccc2)C1=O (stereo not shown)")
"> 10 µM"
>>> result("COc1ccc(N2C(=O)C(c3cccc([N+](=O)[O-])c3)=CC2(O)c2cccc(OC)c2)cc1 (stereo not shown)")
"> 10 µM"

----------
# System: MCF-10A cells
# protocolDetails: MTT cell viability assay
# Format: cell-based, human
# assaySetup: Homo sapiens, MCF-10A, 72 h, 10%FBS growth media
valueKind: log10(IC50) (log10 of the value in µM)

>>> result("COc1cccc2c1C(=O)c1c(O)c3c(c(O)c1C2=O)C[C@@](O)(C(=O)CO)C[C@@H]3O[C@H]1C[C@H](N)[C@H](O)[C@H](C)O1 [DOXO, doxorubicin, reference compound]")
-1.05
>>> result("O=C1C(c2ccc([N+](=O)[O-])cc2)=CC(O)(c2ccccc2)N1Cc1ccccc1 (stereo not drawn) [compound 35]")
0.50
>>> result("Cc1ccc(C2=CC(O)(c3ccccc3)N(Cc3ccccc3)C2=O)cc1C (stereo not drawn) [compound 32]")
-1.10
>>> result("O=C1C(c2ccccc2)=CC(O)(c2ccccc2)N1C1CCCCC1 (stereo not drawn) [compound 4]")
0.86
>>> result("COc1ccccc1C1=CC(O)(c2ccc([N+](=O)[O-])cc2)N(Cc2ccccc2)C1=O (stereo not drawn) [compound 49]")
-0.51

----------
# Test system: T47D estrogen-depleted cells
# protocolDetails: E2-induced proliferation of estrogen-depleted cells (AUC of growth kinetics)
# Assay type: cell-based
# assaySetup: Homo sapiens, T47D, 240 h, read-out: AUC (%) EC50 (μM)
valueKind: EC50 (pM)

>>> result("CCCc1c(-c2ccc(O)cc2)nn(-c2ccc(O)cc2)c1-c1ccc(O)cc1 [PPT, reference compound]")
157
>>> result("C[C@]12CC[C@@H]3c4ccc(O)cc4CC[C@H]3[C@@H]1CC[C@@H]2O [E2, 17β-estradiol, reference compound]")
7.1

----------
# System: Ishikawa cells
# protocolDetails: MTT cell viability assay
# Assay type: cell-based, human
# assaySetup: Homo sapiens, Ishikawa, read-out: IC50 (μM) ISHIKAWA, 72 h, 10%FBS growth media
Measured IC50 accompanies every entry in the list below.
valueKind: IC50 (µM)

>>> result("COc1ccccc1C1=CC(O)(c2ccc([N+](=O)[O-])cc2)N(Cc2ccccc2)C1=O (stereo not shown)")
4.82
>>> result("COc1ccc(C2=CC(O)(c3ccc([N+](=O)[O-])cc3)N(Cc3ccccc3)C2=O)cc1 (stereo not shown)")
3.47
>>> result("COc1cccc2c1C(=O)c1c(O)c3c(c(O)c1C2=O)C[C@@](O)(C(=O)CO)C[C@@H]3O[C@H]1C[C@H](N)[C@H](O)[C@H](C)O1 [DOXO, doxorubicin, reference compound]")
0.09

----------
# Tested on: ERα-mediated transcription (3xERE-luciferase), T47D-KBluc cells
# protocolDetails: ER-dependent transcriptional activity, 3xERE-luciferase reporter in T47D-KBluc cells
# assaySetup: read-out: IC50 on E2-induced ER-dependent transcriptional activity; co-incubation with E2
valueKind: IC50 (nM)

>>> result("C[C@]12CC[C@@H]3c4ccc(O)cc4C[C@@H](CCCCCCCCC[S+]([O-])CCCC(F)(F)C(F)(F)F)[C@H]3[C@@H]1CC[C@@H]2O (stereo partly shown) [ICI, ICI-182,780, reference compound]")
0.2

----------
# System: MDA-MB-231 cells
# protocolDetails: MTT cell viability assay
# Format: cell-based, human
# assaySetup: Homo sapiens, MDA-MB-231, 72 h, 10%FBS growth media
Mark Criterion met only when IC50 stays strictly below 8 µM. Values equal to the cut-off are Criterion not met.

>>> categorylabel("COc1ccc(N2C(=O)C(c3cccc([N+](=O)[O-])c3)=CC2(O)c2cccc(OC)c2)cc1 (stereo not shown)")
"Criterion not met"
>>> categorylabel("COc1ccc(C2=CC(O)(c3ccccc3)N(C3CCCCC3)C2=O)cc1F (stereo not shown)")
"Criterion not met"
>>> categorylabel("COc1cccc2c1C(=O)c1c(O)c3c(c(O)c1C2=O)C[C@@](O)(C(=O)CO)C[C@@H]3O[C@H]1C[C@H](N)[C@H](O)[C@H](C)O1 [DOXO, doxorubicin, reference compound]")
"Criterion met"
>>> categorylabel("O=C1C(c2ccc([N+](=O)[O-])cc2)=CC(O)(c2ccccc2)N1Cc1ccccc1 (stereo not shown)")
"Criterion not met"
>>> categorylabel("O=C1C(c2ccccc2)=CC(O)(c2ccccc2)N1C1CCCCC1 (stereo not shown)")
"Criterion not met"
>>> categorylabel("COc1ccc(C2=CC(O)(c3ccc([N+](=O)[O-])cc3)N(Cc3ccccc3)C2=O)cc1 (stereo not shown)")
"Criterion not met"
>>> categorylabel("COc1ccc(N2C(=O)C(c3ccccc3)=CC2(O)c2ccc(OC)cc2)cc1 (stereo not shown)")
"Criterion not met"
>>> categorylabel("Cc1ccc(C2=CC(O)(c3ccccc3)N(Cc3ccccc3)C2=O)cc1C (stereo not shown)")
"Criterion met"
>>> categorylabel("O=C1C(c2ccc3c(c2)OCO3)=CC(O)(c2ccccc2)N1Cc1ccccc1 (stereo not shown)")
"Criterion not met"

----------
# System: VERO cells
# protocolDetails: MTT cell viability assay
# Type: cell-based, monkey
# assaySetup: 72 h, 10%FBS growth media
valueKind: IC50

>>> result("C[C@]12CC[C@@H]3c4ccc(O)cc4C[C@@H](CCCCCCCCC[S+]([O-])CCCC(F)(F)C(F)(F)F)[C@H]3[C@@H]1CC[C@@H]2O (stereo partly shown) [ICI, ICI-182,780, reference compound]")
"> 10 µM"

----------
# Test system: T47D cells
# protocolDetails: MTT cell viability assay
# Format: cell-based, human
# assaySetup: 72 h, 10%FBS growth media
valueKind: IC50 (µM)

>>> result("C[C@]12CC[C@@H]3c4ccc(O)cc4C[C@@H](CCCCCCCCC[S+]([O-])CCCC(F)(F)C(F)(F)F)[C@H]3[C@@H]1CC[C@@H]2O (stereo partly shown) [ICI, ICI-182,780, reference compound]")
14.9

----------
# Tested on: MCF-7 cells
# protocolDetails: MTT cell viability assay
# Format: cell-based, human
# assaySetup: Homo sapiens, MCF7, 72 h, 10%FBS growth media
valueKind: IC50 (µM)

>>> result("COc1ccc(N2C(=O)C(c3ccccc3OC)=CC2(O)c2ccc([N+](=O)[O-])cc2)cc1 (stereo not drawn)")
6.17
>>> result("O=C1C(c2ccc([N+](=O)[O-])cc2)=CC(O)(c2ccccc2)N1Cc1ccccc1 (stereo not drawn)")
2.59

----------
# System: VERO cells
# protocolDetails: MTT cell viability assay
# Type: cell-based, monkey
# assaySetup: Primates, Vero, 72 h, 10%FBS growth media
valueKind: IC50 (µM)

>>> result("Cc1ccc(C2=CC(O)(c3ccccc3)N(Cc3ccccc3)C2=O)cc1C (centres unmarked)")
14.7
>>> result("O=C1C(c2ccc([N+](=O)[O-])cc2)=CC(O)(c2ccccc2)N1Cc1ccccc1 (centres unmarked)")
9.61
>>> result("COc1cccc2c1C(=O)c1c(O)c3c(c(O)c1C2=O)C[C@@](O)(C(=O)CO)C[C@@H]3O[C@H]1C[C@H](N)[C@H](O)[C@H](C)O1 [DOXO, doxorubicin, reference compound]")
2.62

Values compiled from paper PMC9655618.
